Attribution: the supplement of paper PMC6555819

The reader will find reported PBM binding z-score values listed item by item below.
# System: RXRa DBDmut IVT, anti-RXR (DBD mutation: RXRa K156A/R161A, NR concentration 90 nM)
# TEST: PBM binding z-score (relative to random genomic background probes); higher = stronger binding; sequences stand for … in GC…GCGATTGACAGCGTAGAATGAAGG
Could you keep your reply to the number by itself?

The recorded PBM binding z-score for CCAGCTAGGTCATGGTCAGCTAATCTACAGTATG is 1.61

The recorded PBM binding z-score for entry CCTGCTGGGCCATTCAGAGGTCATTGATCATATG equals 1.05

TTACCAGGGTGAAGGTCGTTGATCCCTCTGTAGA has a reported PBM binding z-score of -0.374

The sequence CCTTGCGGGTCAAGGTTATAGCACGGGTGGTACG showed PBM binding z-score equal to 0.089

# PBM binding z-score of TCTGCTAGGTCAACGGTGGTCAGCTAATCTGCTA = 1.01

PBM binding z-score for TTACCAAGGTGAGCTGAGGTTGTTGATCCAACTC is -0.414

###

# System: RARb homodimer (NR concentration 270 nM)
# TEST: PBM binding z-score (relative to random genomic background probes); higher = stronger binding; sequences stand for … in GC…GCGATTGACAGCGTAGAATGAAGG
ENDPOINT NAME: PBM binding z-score

Worked cases, PBM binding z-score given:
monomer_sequence=CAAACTAGGTCACAGAGGTCAAAGCCCGTGCGTA endpoint_name="PBM binding z-score" experimental_result=5.57
monomer_sequence=GCATATAGGTAATACAAGGTGATAGTCCGATTGT endpoint_name="PBM binding z-score" experimental_result=-0.0222
monomer_sequence=CCGACTGGGGCAAAGGGTACCATACTCAGTACGA endpoint_name="PBM binding z-score" experimental_result=0.849
monomer_sequence=TATACAGGGTCAAAGGCCCGAGTACGAATGTCGA endpoint_name="PBM binding z-score" experimental_result=2.83

PBM binding z-score measured on ATACCAAGGTGATCGTGAGGTCGTTCATACTAAC = 1.73

Measured PBM binding z-score, TCGAGTGGGTTAGTCGGGGCATTCAGCCAACATA : 0.697

Please fill in: PBM binding z-score reported for AGAACGAGGGCAATGAGTTGATAGGACGGGTGGC = 1.01

Entry CATACAGGGTCAGTTAGGCCAGAGTAGGGACGGC , PBM binding z-score reported as 2.87

CCTACTGGGCCATCAGGTCATGGATATCAACGTT yielded PBM binding z-score of 2.95

GGAACGAGGCCATTCGAGTTGATAGCATGGCGAT yielded PBM binding z-score of -0.135

Recorded PBM binding z-score (sequence ATACCAAGGTGATCGTGTGGTCGTTGATACTAAC ): 0.584

Just so you know, measured PBM binding z-score for ACTAGCATGCCAAGTTTGGGTCACTCAAACAAAG came out at 1.71

For this sequence ( CCTAGCAGGCCAATCTGGGTGACTCAAGGCTTGA ), measured PBM binding z-score is -0.195

So for ATACCAAGGTGATCGTGAGGTCGTTGAAACTAAC , the logged PBM binding z-score turned out to be 2.04

get_value(item= GCGACTGGGGCAAAGCACGTTACCATAAGGTTGG , readout=PBM binding z-score) returns 0.0132

The sequence listed as GCTTGTAGATCAGGGTTAAGAAAGACTAAGCTAA shows PBM binding z-score equal to 0.053

The value of PBM binding z-score measured for the sequence CCTGCTAGATCAATGGTCAGCTAAAGCAGCTCGC turned out to be -0.343

Lab note: measured PBM binding z-score of TCTCGGAGGACACGAAAGGTCGGAGCTCGACATC was 2.87

So for TAGCCTAGGTCATTGGGCCAGTATTGTACGCATC , the logged PBM binding z-score turned out to be 2.89

PBM binding z-score reading for TCATATAAGTAAACAGGTGAAAGTCCGTAAGTTA : 0.596

Entry ATCTCTAGGTAAGACTAAGTTCAGTGAAGAACGC , PBM binding z-score reported as 1.85

Field PBM binding z-score (entry TCTTGTAGCTCAAGCAGGTTAAGAAAGCCTGAGT ) reads -0.116

The value of PBM binding z-score measured for the sequence CCTTGTTGGTCAAGGTCACACACGCTATAGGTAC turned out to be 4.53

###

# Test system: VDR:RXRa (NR concentration 270 nM, RXRa partner concentration 90 nM)
# TEST: PBM binding z-score (relative to random genomic background probes); higher = stronger binding; sequences stand for … in GC…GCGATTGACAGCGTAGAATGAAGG
PBM binding z-score for assorted sequences
Please respond with just the number, no unit label.

monomer_sequence=TCATATAGGTAAACAGGTGAATGTCCGTAAGTTA endpoint_name="PBM binding z-score" experimental_result=0.948
monomer_sequence=TATACAGCGTCAAAGGCCAGAGTACGAATGTCGA endpoint_name="PBM binding z-score" experimental_result=-0.305
monomer_sequence=TATACAGGGTCAAACGCCAGAGTACGAATGTCGA endpoint_name="PBM binding z-score" experimental_result=5
monomer_sequence=TCATATAGGTAAAAGGTGAAAATCGGTGTGGTAA endpoint_name="PBM binding z-score" experimental_result=1.65
monomer_sequence=CCTAGTTGTTCAAGGTCACACACGCTATAGGTAC endpoint_name="PBM binding z-score" experimental_result=4.49
monomer_sequence=ACTATTAGTTGAGACGAGGCCAACCGATAGGTTG endpoint_name="PBM binding z-score" experimental_result=0.333

Field PBM binding z-score (VDR:RXRa (NR concentration 270 nM, RXRa partner concentration 90 nM)), entry AGTCAAAGTTCAGGACGAGGTAACCTAAAGCACG : 2.94

###

# System: LXRb:RXRa (NR concentration 270 nM, RXRa partner concentration 90 nM)
# TEST: PBM binding z-score (relative to random genomic background probes); higher = stronger binding; sequences stand for … in GC…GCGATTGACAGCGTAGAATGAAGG
ENDPOINT NAME: PBM binding z-score
Just the number, please.

Reference set, count: 3
monomer_sequence=CCTACTGGGCGAAAGGTCATTGATTCCAATGCTC subject_of_test="LXRb:RXRa (NR concentration 270 nM, RXRa partner concentration 90 nM)" experimental_result=4.35
monomer_sequence=AGAAAGAGGTTACCAAAGATCAGGGAAACGCTTG subject_of_test="LXRb:RXRa (NR concentration 270 nM, RXRa partner concentration 90 nM)" experimental_result=3.65
monomer_sequence=CGTCCAAGATCAGCAGGTCAGTGAAAGCGACGTG subject_of_test="LXRb:RXRa (NR concentration 270 nM, RXRa partner concentration 90 nM)" experimental_result=0.195

get_value(item= CCTCCTGGGCCATCAGGTCATTGATATCAACGTT , readout=PBM binding z-score) returns 1.31

Consider CTCGAAAGGTCGGTTGAGGTGAGTAGACGGATAA . Its measured PBM binding z-score is 1.44

Form field PBM binding z-score, entry TTACCAAGGAGAGCTGAGGTCGTTGATCCAACTC : 0.248

Input TCGAGTACGTTAGGGGCATTCAGAATGGCGTCGA . Output PBM binding z-score: 0.0159

GET /value?item= TCGAGTAGGTTACCAATGGGGCATTCCGCTTTCT &field=PBM binding z-score returns 0.838

Note to self: PBM binding z-score recorded for TCTTGTAAATCAAAGGTTAAGAAAGCCGAAGCCT was 1.94

Looking up TCATATCGGTAAAGGTGAAAGTCGAACGATATGA , I see its PBM binding z-score listed as 1.35

Recorded result, GCATATAGGCAATACAAGGTGAAAGTCCGATTGT , PBM binding z-score: 0.343

# PBM binding z-score (sequence: CCTAGCAGGCCAGGGTCACTCGAGCATTTCGCTT ) is 1.78

Entry under test: TCATATAGGTAAATGCTAGGTGAAAGTCCGATCT . Its PBM binding z-score was 0.834

###

# Tested on: PPARg DBDmut:RXRa IVT, anti-PPARg (DBD mutation: PPARg1 K132A/R137A, NR concentration 270 nM, RXRa partner concentration 90 nM)
# TEST: PBM binding z-score (relative to random genomic background probes); higher = stronger binding; sequences stand for … in GC…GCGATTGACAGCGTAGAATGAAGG
ENDPOINT NAME: PBM binding z-score
# print the numeric value only

The recorded PBM binding z-score for entry ACTAGCAGGCCAAGGGTCCCTCAAGATTAGTCCG equals -0.919

Recorded PBM binding z-score (sequence GTACCAAGGTGAATAGGACGTTGATGAGTAGGCG ): 0.467

Field PBM binding z-score (entry CAAACTAGGTCACAGAGGTCACAGTCCGTGCGTA ) reads 2.8

According to the records, this sequence CAAACTAGGGCACCGGAAGGTCAAAGTCCGCATG displays PBM binding z-score of 1.16

// field: PBM binding z-score; key: TCTATTAGTTGATTAGGGCAACGGAAACAGCGGA ; value = 0.436

# PBM binding z-score (sequence: CAGCCCAGGTCAGGGCCAGTATAGGAGGAACGTT ) is -1.13

# sequence CCTAGCAGGCCAAGCTGGGTCACTCAAGGCTTGA ; its PBM binding z-score = -0.82

# sequence GGAACGAGGGCAATTTGATAGCAGAGTTTGATGG ; its PBM binding z-score = -0.942
